// provenance: patent US20250042994A1

Target: T1, Human CD19-his protein (human, UniProt P15391 20-291)
T1 construct: bought protein; also called human CD19 protein; recombinant human CD19-His; not shown: His tag
T1 sequence (looked up): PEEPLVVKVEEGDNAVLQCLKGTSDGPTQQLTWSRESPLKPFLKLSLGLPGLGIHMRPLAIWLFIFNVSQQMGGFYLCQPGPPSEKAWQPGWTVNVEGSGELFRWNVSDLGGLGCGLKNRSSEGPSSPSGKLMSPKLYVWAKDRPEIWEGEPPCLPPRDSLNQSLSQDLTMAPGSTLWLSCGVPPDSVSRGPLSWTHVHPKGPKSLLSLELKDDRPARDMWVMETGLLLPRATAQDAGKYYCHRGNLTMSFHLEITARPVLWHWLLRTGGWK
Test: ELISA, antibody at 100 nM
Catalogue of OD450 values

- BINDER: "F4.276.12 (antibody, human IgG1, V domains shown, human-murine chimeric antibody, human IgG1) VH: EIQLQQSGPELVKPGASVKVSCKASGYAFSAYNMYWVKQSHGKSLEWIGYIDPYNGGTNYNQKFKGKATLTVDKSSSTAYMHLNSLTSEDSAVYYCARDGYEVTYWGQGTLVTVSA VL: QIVLTQSPALMSASLGEEITLTCSASSSVTYMHWSQQKSGTSPRLLIYSTSNLASGVPSRFSGSGSGTFYSLTISSVEAEDAADYYCHQWSSYPWTFGGGTKLEIK"
  OD450: 1.43
- BINDER: "F4.18.13 (antibody, human IgG1, V domains shown, human-murine chimeric antibody, human IgG1) VH: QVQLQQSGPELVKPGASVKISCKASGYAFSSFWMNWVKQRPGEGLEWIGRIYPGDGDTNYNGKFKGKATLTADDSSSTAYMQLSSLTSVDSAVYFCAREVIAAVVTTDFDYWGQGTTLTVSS VL: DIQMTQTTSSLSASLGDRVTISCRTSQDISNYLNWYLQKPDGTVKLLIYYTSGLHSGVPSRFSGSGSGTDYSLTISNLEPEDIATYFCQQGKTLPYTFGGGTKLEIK"
  OD450: 1.69
- BINDER: "F5.10.6 (antibody, human IgG1, V domains shown, human-murine chimeric antibody, human IgG1) VH: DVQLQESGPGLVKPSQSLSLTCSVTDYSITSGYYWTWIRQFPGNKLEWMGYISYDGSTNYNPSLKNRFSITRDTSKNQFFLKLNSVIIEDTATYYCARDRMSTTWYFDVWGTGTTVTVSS VL: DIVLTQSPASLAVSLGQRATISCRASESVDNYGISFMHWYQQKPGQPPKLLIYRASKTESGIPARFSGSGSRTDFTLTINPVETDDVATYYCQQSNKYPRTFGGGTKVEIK"
  OD450: 1.52
- BINDER: "F4.78.1 (antibody, human IgG1, V domains shown, human-murine chimeric antibody, human IgG1) VH: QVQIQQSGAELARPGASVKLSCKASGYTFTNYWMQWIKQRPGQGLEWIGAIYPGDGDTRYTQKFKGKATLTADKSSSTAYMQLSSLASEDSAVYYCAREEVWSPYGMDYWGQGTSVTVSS VL: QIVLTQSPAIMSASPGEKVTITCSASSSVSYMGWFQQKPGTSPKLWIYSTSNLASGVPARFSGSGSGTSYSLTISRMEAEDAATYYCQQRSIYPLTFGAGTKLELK"
  OD450: 1.87
- BINDER: "F4.152.7 (antibody, human IgG1, V domains shown, human-murine chimeric antibody, human IgG1) VH: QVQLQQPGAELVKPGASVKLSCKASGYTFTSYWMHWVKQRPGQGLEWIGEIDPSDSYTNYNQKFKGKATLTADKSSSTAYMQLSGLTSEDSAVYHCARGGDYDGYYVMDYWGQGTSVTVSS VL: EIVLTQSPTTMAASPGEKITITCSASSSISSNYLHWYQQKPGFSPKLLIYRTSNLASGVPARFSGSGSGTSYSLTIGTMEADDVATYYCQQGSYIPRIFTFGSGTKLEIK"
  OD450: 2.07
- BINDER: "F4.21.2 (antibody, human IgG1, V domains shown, human-murine chimeric antibody, human IgG1) VH: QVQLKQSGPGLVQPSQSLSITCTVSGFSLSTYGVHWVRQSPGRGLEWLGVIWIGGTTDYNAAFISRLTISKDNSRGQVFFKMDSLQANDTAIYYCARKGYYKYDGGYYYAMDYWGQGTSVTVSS VL: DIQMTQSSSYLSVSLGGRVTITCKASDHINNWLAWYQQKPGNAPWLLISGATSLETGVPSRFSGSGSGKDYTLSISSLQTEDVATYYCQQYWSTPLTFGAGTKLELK"
  OD450: 1.9
- BINDER: "F5.2.9 (antibody, human IgG1, V domains shown, human-murine chimeric antibody, human IgG1) VH: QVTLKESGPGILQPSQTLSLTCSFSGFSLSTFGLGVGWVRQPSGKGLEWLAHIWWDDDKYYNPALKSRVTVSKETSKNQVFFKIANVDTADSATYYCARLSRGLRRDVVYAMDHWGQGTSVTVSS VL: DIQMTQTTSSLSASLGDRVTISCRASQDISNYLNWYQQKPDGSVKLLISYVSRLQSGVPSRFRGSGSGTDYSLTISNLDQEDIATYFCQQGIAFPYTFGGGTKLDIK"
  OD450: 1.56
- BINDER: "F4.125.12 (antibody, human IgG1, V domains shown, human-murine chimeric antibody, human IgG1) VH: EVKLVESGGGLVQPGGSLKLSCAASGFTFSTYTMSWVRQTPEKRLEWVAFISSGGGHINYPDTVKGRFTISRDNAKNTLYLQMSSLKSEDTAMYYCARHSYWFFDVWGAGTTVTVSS VL: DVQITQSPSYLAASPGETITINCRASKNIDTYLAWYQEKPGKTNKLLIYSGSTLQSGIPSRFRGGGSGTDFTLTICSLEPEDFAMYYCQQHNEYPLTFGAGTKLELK"
  OD450: 1.84
- BINDER: "F1-mab003 (antibody, human IgG1, V domains shown, human-murine chimeric antibody, human IgG1) VH: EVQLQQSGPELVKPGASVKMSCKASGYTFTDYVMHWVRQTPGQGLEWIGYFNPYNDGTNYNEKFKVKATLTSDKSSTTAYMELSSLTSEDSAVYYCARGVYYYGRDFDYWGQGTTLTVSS VL: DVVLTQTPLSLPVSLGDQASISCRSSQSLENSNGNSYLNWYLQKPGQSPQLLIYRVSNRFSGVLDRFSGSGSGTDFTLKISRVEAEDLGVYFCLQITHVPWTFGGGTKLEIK"
  OD450: 1.98
